subjectOfTest: serotonin 5-HT3 receptor (Mus musculus)
Construct: the 5-HT3 receptor which was endogenously expressed in the human cell line N1E-115; endogenous in cells
Sequence (P23979 24-483 isoform P23979-2 limits assumed): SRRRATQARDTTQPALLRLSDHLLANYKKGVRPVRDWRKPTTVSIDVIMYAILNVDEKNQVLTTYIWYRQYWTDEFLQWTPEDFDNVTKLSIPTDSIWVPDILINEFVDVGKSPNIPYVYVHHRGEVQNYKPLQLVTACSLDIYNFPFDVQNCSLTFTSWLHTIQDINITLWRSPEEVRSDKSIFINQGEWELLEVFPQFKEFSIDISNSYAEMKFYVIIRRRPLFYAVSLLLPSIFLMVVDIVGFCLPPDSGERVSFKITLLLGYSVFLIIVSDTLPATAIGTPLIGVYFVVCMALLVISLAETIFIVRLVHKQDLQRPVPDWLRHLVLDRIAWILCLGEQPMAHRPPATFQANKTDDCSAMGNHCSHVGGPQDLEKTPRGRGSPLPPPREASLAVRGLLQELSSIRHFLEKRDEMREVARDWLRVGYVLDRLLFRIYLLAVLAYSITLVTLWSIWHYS
testMethodNotes: Radioligand binding assay with [3H]-GR-65630 on membranes of cell line N1E-115
studyConditions: competition with [^3H]-GR-65630 (0.35 nM), N1E-115 membranes, 20 mM HEPES pH 7.4, 150 mM NaCl, 25°C, 60 min; Cheng and Prusoff; read-out: Kl
# Ki listing for each entry below
Could you give me the number in nM? Just the number is fine.

Example cases with answers are listed next.
smilesRecord: Cc1nccn1C[C@@H]1CCc2c(c3cccc4c3n2CC[C@@H]4O)C1=O
Ki, nM: 8.8
--
smilesRecord: Cc1nccn1C[C@H]1CCc2c(c3cccc4c3n2CC[C@@H]4O)C1=O
Ki, nM: 3
--
smilesRecord: Cc1nccn1C[C@@H]1CCc2c(c3cccc4c3n2CC[C@H]4O)C1=O
Ki, nM: 38

Here is another compound to look at.
The compound `Cc1nccn1C[C@H]1CCc2c(c3cccc4c3n2CC[C@H]4O)C1=O` , tested on serotonin 5-HT3 receptor (Mus musculus), showed Ki of 10
